test: Pharmacokinetic data in Beagle dogs at 0.863 mg/kg oral dose.
Format: ADME, organism-based, Canis lupus familiaris
Design: dose 0.863 mg/kg, route oral
statedConditions: dog, in vivo
propertyLabel: AUC (ng·h/mL)
Give your result in ng·h/mL as a bare value.

Lookup result for `CNC(=O)CNC(=O)[C@@H]1Cc2ccc(cc2)OCCC[C@H](C(=O)NO)[C@@H](CC(C)C)C(=O)N1` ; measured AUC: 342

---

test: Pharmacokinetic data in Beagle dogs at 0.74 mg/kg intravenous dose.
Type: ADME, organism-based, Canis lupus familiaris
Set-up: dose 0.74 mg/kg, route intravenous
statedConditions: dog, in vivo, read-out: Vss
propertyLabel: Vd (L/kg)
Give your result in L/kg as a bare value.

Lookup result for `CNC(=O)CNC(=O)[C@@H]1Cc2ccc(cc2)OCCC[C@H](C(=O)NO)[C@@H](CC(C)C)C(=O)N1` ; measured Vd: 0.7
